# System: OVCAR-5
# Run description: NCI tumour cell line growth inhibition, 48 h
Activity calls are given as the source filed them. Cut-off read from the data, not from the text of the source: active = GI50 up to about 1.1 µM and inactive = higher.
Assay readout: GI50

// worked examples, GI50 included
Which GI50 reading was recorded for the compound NC(=O)CN1C=CCC(C(N)=O)=C1 [CARICOTAMIDE] ?
> 100 µM (inactive)

Consider the compound shown here: "Cc1ccc(/C=N/n2c(-c3ccc(C)cc3)n[nH]c2=O)cc1" What is its recorded GI50?
84.9 µM (inactive)

Fill in: GI50 of "O=c1c(C(c2ccccc2)c2c(O)oc3cc(O)ccc3c2=O)c(O)oc2cc(O)ccc12" is ___
> 100 µM (inactive)

Reported GI50 for CSc1nc2c(ncn2C2OCC(O)C(O)C2O)c(=O)[nH]1 (stereo unspecified) : what is it?
> 100 µM (inactive)

Give the measured GI50 of N#CC(C(=O)CCC(=O)Nc1cccc(C(F)(F)F)c1)c1ccccc1 (stereo unspecified) .
> 100 µM (inactive)

Entry under review: "O=C(NC(=O)c1cn(CCN2CCN(C(=O)NCCCCCCNC(=O)N3CCN(CCn4cc(C(=O)NC(=O)OCc5ccccc5)c(=O)[nH]c4=O)CC3)CC2)c(=O)[nH]c1=O)OCc1ccccc1" . Reported GI50?
> 100 µM (inactive)

For CCOP(=O)(OCC)OC1c2[nH]cc(C(=O)OCc3ccccc3)c2-c2cc(C(=O)OC)[nH]c2C1OC (stereo unspecified) , what is its reported GI50?
37 µM (inactive)

Fill blank: measured GI50 of the compound "COc1cc(/C=C/c2csnn2)cc(OC)c1OC" is ____.
> 100 µM (inactive)

As a next step, examine the compound that follows.
# GI50 lookup, item "CCCCCCNc1n[nH]c(=O)c2c1nnn2Cc1ccccc1"
> 100 µM (inactive)
